Test system: LU-165 (Small Cell Lung Carcinoma)
protocol: combination Emax (second highest fraction inhibited in the dose matrix, 72 h); higher = more inhibition; extreme values may be limits of the assay
recorded_metric: combination Emax
One number for each entry.

Look up combination Emax for this molecule: Cc1c2c(nn1C)CSCc1cc(n(C)n1)CSc1cc(c3ccccc3c1)OCCCc1c(C(=O)O)n(C)c3c-2c(Cl)ccc13 [AZD5991] + C[C@@H]1COCCN1C2=NC(=NC(=C2)C3(CC3)[S@](=N)(=O)C)C4=C5C=CNC5=NC=C4 [AZD6738] (first compound max 1 µM, 7x7, partner max 10 µM)
0.321

Using the record for Cn1cnc2c(F)c(Nc3ccc(Br)cc3Cl)c(C(=O)NOCCO)cc21 [Selumetinib] + CCN(CCO)CCCOc1ccc2c(Nc3cc(CC(=O)Nc4cccc(F)c4)[nH]n3)ncnc2c1 [AZD2811] (first compound max 10 µM, 7x7, partner max 1 µM) , report its combination Emax.
0.158

Consider the molecule shown here: NC1(C(=O)N[C@@H](CCO)c2ccc(Cl)cc2)CCN(c2ncnc3[nH]ccc23)CC1 [Capivasertib] + Cn1cnc2c(F)c(Nc3ccc(Br)cc3Cl)c(C(=O)NOCCO)cc21 [Selumetinib] (first compound max 10 µM, 7x7, partner max 10 µM) What is its recorded combination Emax?
0.444

Let us move to another entry and its combination Emax.
Returns the measured combination Emax for the input molecule. Input: Cn1cnc2c(F)c(Nc3ccc(Br)cc3Cl)c(C(=O)NOCCO)cc21 [Selumetinib] + CC(C)n1c(=O)n(C)c2cnc3cc(F)c(-c4ccc(OCCCN5CCCCC5)nc4)cc3c21 [AZD1390] (first compound max 10 µM, 7x7, partner max 0.3 µM)
0.213
